Hello, the source for this data is PubChem BioAssay AID1159580, in case you need it.

- experiment.description: chemical genetic growth profiling, strain panel (AID 1159580);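 further: tested at 20 µM; growth read once vehicle control cultures reached saturation at 30 °C; 1 = growth at the plate median or of vehicle wells; lower values mean less growth of the strain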
- condition.set: S. cerevisiae deletion strains, growth OD, locus YOR119C, strain RIO1, stronger effect = lower value
Screen size: about 5,500 compounds; about 2,000 (36%) were called active. About 18% were inconclusive and are not listed. This is one part of the list.

{"molecule": "CCC1CCC(C)N(C(=S)Nc2ccc(Br)cc2C)C1 (stereo unspecified)", "normalized growth": 1.08}
{"molecule": "COc1ccccc1NC(=O)Nc1nn(C)c2cccc(OC)c12", "normalized growth": 0.8}
{"molecule": "CCOC(=O)CCc1cc(N=Cc2cc(Br)ccc2O)c(O)c(N=Cc2cc(Br)ccc2O)c1", "normalized growth": 0.84}
{"molecule": "C/C(=N/OC(=O)Nc1ccc(Cl)cc1)c1ccc2c(c1)CCO2", "normalized growth": 0.894}
{"molecule": "CC(=O)C(Sc1nc2ccccc2s1)C(C)=O", "normalized growth": 0.827}
{"molecule": "Cc1cc(C(=O)O/N=C(/N)c2ccc([N+](=O)[O-])o2)no1", "normalized growth": 0.888}
{"molecule": "CCOC(=O)NC(=S)NC12CC3CC(CC(C3)C1)C2", "normalized growth": 0.934}
{"molecule": "Cc1cc(C(=O)O/N=C(/N)c2ccc(C(C)(C)C)cc2)no1", "normalized growth": 0.911}
{"molecule": "CCCCCc1ccc(S(=O)(=O)Nc2ccc3c(c2)C(=O)OC3)cc1", "normalized growth": 1.01}
{"molecule": "CSc1cccc(N2C(=O)CC(c3c(Cl)cccc3Cl)CC2=O)c1", "normalized growth": 1}
{"molecule": "O=C1/C(=C/c2c(F)cccc2Cl)Cc2ccccc21", "normalized growth": 0.952}
